# System: M010B (Human glioma)
# experiment: Cytotoxicity testing (MTS) on M010B
# Type: cell-based
Fraction of cells that survive at the highest drug concentrations (Ibot) by entry:

| compound | result |
| --- | --- |
| CCCOc1cc2c(c(OC)c1OC)-c1ccc(SC)c(=O)cc1[C@@H](NC(C)=O)CC2 | 0.214 ± 0.022 |

In: Requested read-out: Fraction of cells that survive at the highest drug concentrations (Ibot). Entry: COc1cc2c(c(OCC(C)C)c1OC)-c1ccc(OC)c(=O)cc1[C@@H](NC(C)=O)CC2
Out: 0.239 ± 0.031

In: What would you report for COc1cc2c(c(-c3cccnc3)c1OC)-c1ccc(OC)c(=O)cc1[C@@H](NC(C)=O)CC2 ?
Out: 0.305 ± 0.053

In: What would you report for COc1cc2c(c(OC)c1OC)-c1ccc(OC)c(=O)cc1[C@@H](NC(C)=O)CC2 [Colchicine, reference compound] ?
Out: 0.107 ± 0.017
